# testedSystem: T1, biotinylated recombinant cynomolgus monkey trimeric ARG2 enzyme (Avi-cynoARG2-His10) (cynomolgus monkey, UniProt P78540 23-354 (human entry), biotinylated)
# T1 construct: also called cynomolgus ARG2
# T1 chain: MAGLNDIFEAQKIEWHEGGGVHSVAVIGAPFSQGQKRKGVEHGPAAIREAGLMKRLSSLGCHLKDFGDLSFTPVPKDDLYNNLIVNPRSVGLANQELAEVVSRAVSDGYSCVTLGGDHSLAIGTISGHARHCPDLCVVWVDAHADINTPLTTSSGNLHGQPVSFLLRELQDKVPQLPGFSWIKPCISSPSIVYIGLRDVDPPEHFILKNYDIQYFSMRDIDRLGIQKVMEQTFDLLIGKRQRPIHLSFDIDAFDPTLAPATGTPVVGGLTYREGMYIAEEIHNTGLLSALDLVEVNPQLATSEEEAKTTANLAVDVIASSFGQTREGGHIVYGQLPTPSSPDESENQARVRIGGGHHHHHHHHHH
# procedureDetails: BLI (OctetRED), biotinylated cyno ARG2 on streptavidin, Fab as analyte
attributeMeasured: kon (M⁻¹ s⁻¹)

>>> recordedmeasurement("C0021061 Fab (Fab, V domains shown, Human Fab) VH: EVQLLESGGGLVQPGGSLRLSCAASGFTFSSYAMSWVRQAPGKGLEWVSAKPTDAGSTYYADSVKGRFTISRDNSKNTLYLQMNSLRAEDTAVYYCARLRADLGLYMDLWGRGTLVTVSS VL: QSVLTQPPSVSAAPGQKVTISCSGSSSNIGNHYVSWYQQLPGTAPKLLIYNTVYPKSGIPDRFSGSKSGTSATLGITGLQTGDEADYYCGTWDSSLSALVFGGGTKLTVL")
310000
>>> recordedmeasurement("C0021128 Fab (Fab, V domains shown, Human Fab) VH: EVQLLESGGGLVQPGGSLRLSCAASGFTFQYEVAAWVRQAPGKGLEWVSAISGPIPKGYYADSVKGRFTISRDNSKNTLYLQMNSLRAEDTAVYYCARLRADLGLYMDLWGRGTLVTVSS VL: QSVLTQPPSVSAAPGQKVTISCSGSSSNIGNHYVSWYQQLPGTAPKLLIYDNAIESSGIPDRFSGSKSGTSATLGITGLQTGDGADYYCGTWDSNLSALVFGGGTKLTVL")
437000
>>> recordedmeasurement("C0021065 Fab (Fab, V domains shown, Human Fab) VH: EVQLLESGGGLVQPGGSLRLSCAASGFTFSSYAMSWVRQAPGKGPEWVSAISGFSPYYADSVKGRFTISRDNSRNTLYLQMNSLRAEDTAVYYCARLRADLGLYMDLWGRGTLVTVSS VL: QSVLTQPPSVSAAPGQKVTISCSGSSSNIGNHYVSWYQQLPGTAPKLLIYDTDHMASGIPDRFSGSKSGTSATLGITGLQTGDEADYYCGTWDSSLSALVFGGGTKLTVL")
617000
